# filipin (z-score) values compiled below
- Test system: HeLa MZ
- RUN DESCRIPTION: filipin (cholesterol) integrated intensity within LBPA endosomes, Z-score; higher = more cholesterol in LBPA endosomes
- ASSAY CONTEXT: compound concentration in added solution (µM; 5 µl added to 20 µl cells): 10; 18 h
Where a name gives a salt, the structure may show the parent alone.
Keep the answer to the number alone.

1. CN(C)CCOC(c1ccc(Cl)cc1)c1ccccn1 (centres undefined) [Carbinoxamine maleate salt]
-0.169

Data request: Give the measured filipin (z-score) of Clc1ccccc1CN1CCc2sccc2C1 [Ticlopidine hydrochloride] .
Data returned: -0.675

Data request: // repeat for CC1(C)O[C@@H]2C[C@H]3[C@@H]4C[C@H](F)C5=CC(=O)CC[C@]5(C)[C@H]4[C@@H](O)C[C@]3(C)[C@]2(C(=O)CO)O1 [Flurandrenolide] and report
Data returned: -0.297

Data request: // repeat for Clc1ccccc1C(c1ccccc1)(c1ccccc1)n1ccnc1 [Clotrimazole] and report
Data returned: -0.063

###

- Test system: HeLa MZ
- RUN DESCRIPTION: whole-cell filipin (free cholesterol) integrated intensity, Z-score; higher = more cholesterol staining
- ASSAY CONTEXT: compound concentration in added solution (µM; 5 µl added to 20 µl cells): 10; 18 h
Counter-ions that a name gives are not always drawn.
# whole-cell filipin (z-score) values compiled below
Keep the answer to the number alone.

Below, each entry is followed by its recorded whole-cell filipin (z-score) result.
1) CCCC(=O)Nc1ncnc2c1ncn2[C@@H]1O[C@@H]2COP(=O)(O)O[C@H]2[C@H]1OC(=O)CCC [Bucladesine sodium salt]
0.0614
2) NC(=O)c1cccnc1 [Nicotinamide]
-0.013
3) NS(=O)(=O)c1cc2c(cc1Cl)NC(C(Cl)Cl)NS2(=O)=O (stereo not drawn) [Trichlormethiazide]
-0.0923
4) CC(C(=O)O)c1cccc(Oc2ccccc2)c1 (stereo not drawn) [Fenoprofen calcium salt dihydrate]
-0.428
5) CCCCNC(=O)NS(=O)(=O)c1ccc(C)cc1 [Tolbutamide]
-0.426
6) Nc1nc2c(ncn2COC(CO)CO)c(=O)[nH]1
0.0803
7) CCC(C)n1ncn(-c2ccc(N3CCN(c4ccc(OCC5COC(Cn6cncn6)(c6ccc(Cl)cc6Cl)O5)cc4)CC3)cc2)c1=O (stereo not drawn)
2.36

Next compound, please.
Data request: Give the measured whole-cell filipin (z-score) of CN1CCC(=C2c3ccccc3C=Cc3ccccc32)CC1 [Cyproheptadine hydrochloride] .
Data returned: -1.18

###

- Test system: A431
- RUN DESCRIPTION: filipin (cholesterol) integrated intensity within LBPA endosomes, Z-score; higher = more cholesterol in LBPA endosomes
- ASSAY CONTEXT: compound concentration in added solution (µM; 5 µl added to 20 µl cells): 10; 18 h
Label no if filipin (z-score) falls below -0.3; label yes in every other case.

Solved entries (count: 2):
1) COc1cc(NS(=O)(=O)c2ccc(N)cc2)ncn1 [Sulfamonomethoxine]
no
2) CCC1(C)CC(=O)NC1=O (stereo not given) [Ethosuximide]
no

Data request: Assess whether reported filipin (z-score) for C/C=C(/C(=C/C)c1ccc(O)cc1)c1ccc(O)cc1 [Dienestrol] sits at -0.3 or higher.
Data returned: no

Data request: // repeat for C(=C\c1ccccc1)/CN1CCN(C(c2ccccc2)c2ccccc2)CC1 [Cinnarizine] and report
Data returned: no

Data request: // repeat for COC(=O)C1=C(C)NC(C)=C(C(=O)OC(C)C)C1c1cccc2nonc12 (stereo not given) [Isradipine] and report
Data returned: yes

###

- Test system: A431
- RUN DESCRIPTION: LBPA endosome anti-LBPA integrated intensity (sum per cell), Z-score; higher = more LBPA staining
- ASSAY CONTEXT: compound concentration in added solution (µM; 5 µl added to 20 µl cells): 10; 18 h
Structures can show the parent of a compound that is named as a salt.
OBSERVABLE: LBPA endosome anti-LBPA integrated intensity (z-score)
Keep the answer to the number alone.

1) C=CC(N)CCC(=O)O (centres undefined) [Vigabatrin]
-0.513
2) OCCN1CCN(CCCN2c3ccccc3Sc3ccc(Cl)cc32)CC1 [Perphenazine]
3.24
3) C[N+]1(C)CCC(OC(=O)C(O)(c2ccccc2)C2CCCC2)C1 (centres undefined) [Glycopyrrolate]
-0.432
4) C[C@@](Cc1ccc(O)c(O)c1)(NN)C(=O)O [Carbidopa]
-0.613
5) CC[C@]12CCCN3CCc4c(n(c5ccccc45)C(=O)C1)[C@@H]32 [Eburnamonine (-)]
-0.525
6) Cc1cc(C(C)(C)C)cc(C)c1CC1=NCCN1 [Xylometazoline hydrochloride]
-0.127

Data request: Give the measured LBPA endosome anti-LBPA integrated intensity (z-score) of CC1(C)S[C@@H]2[C@H](NC(=O)Cc3ccccc3)C(=O)N2[C@H]1C(=O)O [Benzylpenicillin sodium] .
Data returned: -0.349

Data request: // repeat for CN1CCC(=C2c3ccccc3CCc3sccc32)CC1 [Pizotifen malate] and report
Data returned: 2.92

###

- System: A431
- RUN DESCRIPTION: filipin (cholesterol) integrated intensity within LBPA endosomes, Z-score; higher = more cholesterol in LBPA endosomes
- ASSAY CONTEXT: compound concentration in added solution (µM; 5 µl added to 20 µl cells): 10; 18 h
Counter-ions that a name gives are not always drawn.
OBSERVABLE: filipin (z-score)
Keep the answer to the number alone.

1. C[C@@]1(O)CCOC(=O)C1
-0.408

Data request: Give the measured filipin (z-score) of c1ccc(CN(CC2=NCCN2)c2ccccc2)cc1 [Antazoline hydrochloride] .
Data returned: -0.0343

Data request: // repeat for C[N+]1(C)CCC(OC(=O)C(O)(c2ccccc2)C2CCCC2)C1 (stereo unspecified) [Glycopyrrolate] and report
Data returned: -0.498

Data request: // repeat for CN(C)[C@@H]1C(O)=C(C(N)=O)C(=O)[C@@]2(O)C(O)=C3C(=O)c4c(O)cccc4[C@@](C)(O)[C@H]3C[C@@H]12 [Tetracycline hydrochloride] and report
Data returned: -0.521

Data request: // repeat for CC1(C)S[C@@H]2[C@H](NC(=O)[C@H](N)c3ccccc3)C(=O)N2[C@H]1C(=O)OC1OC(=O)c2ccccc21 (stereo partly specified) [Talampicillin hydrochloride] and report
Data returned: -0.392

Data request: // repeat for NCC[C@H](O)C(=O)N[C@@H]1C[C@H](N)[C@@H](O[C@H]2O[C@H](CN)[C@@H](O)[C@H](O)[C@H]2O)[C@H](O)[C@H]1O[C@H]1O[C@H](CO)[C@@H](O)[C@H](N)[C@H]1O [Amikacin hydrate] and report
Data returned: -0.672

###

- Tested on: A431
- RUN DESCRIPTION: whole-cell filipin (free cholesterol) integrated intensity, Z-score; higher = more cholesterol staining
- ASSAY CONTEXT: compound concentration in added solution (µM; 5 µl added to 20 µl cells): 10; 18 h
Structures can show the parent of a compound that is named as a salt.
Binning rule for recorded whole-cell filipin (z-score): class 1 = under -0.6, class 2 = from -0.6 up to -0.05, class 3 = -0.05 and over

1. CC/C(=C(/CC)c1ccc(O)cc1)c1ccc(O)cc1 [Diethylstilbestrol]
class 2
2. O=C(O)c1cccnc1 [Niacin]
class 2
3. O=C1CCc2cc(OCCCCc3nnnn3C3CCCCC3)ccc2N1 [Cilostazol]
class 1
4. CC1(C)O[C@@H]2[C@@H](CO[C@@]3(COS(N)(=O)=O)OC(C)(C)O[C@@H]23)O1 [Topiramate]
class 2
5. Cc1c(C)c2c(c(C)c1O)CCC(C)(COc1ccc(CC3SC(=O)NC3=O)cc1)O2 (stereo not given) [Troglitazone]
class 2

Data request: Note: place this compound into its band. Item: CCN(CC)CCOC(=O)C(c1ccccc1)C1CCCCC1 (stereo not given) [Drofenine hydrochloride]
Data returned: class 3

Data request: // repeat for CC(=O)N1CCN(c2ccc(OCC3COC(Cn4ccnc4)(c4ccc(Cl)cc4Cl)O3)cc2)CC1 (stereo not given) [Ketoconazole] and report
Data returned: class 3

###

# LBPA endosome anti-LBPA integrated intensity (z-score) values compiled below
- System: A431
- RUN DESCRIPTION: LBPA endosome anti-LBPA integrated intensity (sum per cell), Z-score; higher = more LBPA staining
- ASSAY CONTEXT: compound concentration in added solution (µM; 5 µl added to 20 µl cells): 10; 18 h
Structures can show the parent of a compound that is named as a salt.
Keep the answer to the number alone.

Below, each entry is followed by its recorded LBPA endosome anti-LBPA integrated intensity (z-score) result.
1. CC(N/C(=N\C#N)Nc1ccncc1)C(C)(C)C (stereo not given) [Pinacidil]
-0.477
2. C[C@@H]1NC(=O)NC1=O [Methylhydantoin-5-(L)]
-0.307
3. O=C(O)/C=C/c1ccc(Cn2ccnc2)cc1 [Ozagrel hydrochloride]
-0.373
4. CN1Cc2c(N)cccc2C(c2ccccc2)C1 (stereo not given) [Nomifensine maleate]
-0.419
5. Cc1c(Cl)cccc1Nc1ncccc1C(=O)O [Clonixin Lysinate]
-0.476

Data request: Give the measured LBPA endosome anti-LBPA integrated intensity (z-score) of CNC(=C[N+](=O)[O-])NCCSCc1csc(CN(C)C)n1 [Nizatidine] .
Data returned: -0.247

Data request: // repeat for C=C1c2cccc(O)c2C(=O)C2=C(O)[C@]3(O)C(=O)C(C(N)=O)=C(O)[C@@H](N(C)C)[C@@H]3[C@@H](O)[C@H]12 [Methacycline hydrochloride] and report
Data returned: -0.461

Data request: // repeat for C[C@H](CCC(=O)O)[C@H]1CC[C@H]2[C@@H]3[C@H](O)C[C@@H]4C[C@H](O)CC[C@]4(C)[C@H]3CC[C@]12C [Chenodiol] and report
Data returned: -0.496

Data request: // repeat for CC(=O)Oc1ccccc1C(=O)Oc1ccccc1C(=O)O [Acetylsalicylsalicylic acid] and report
Data returned: -0.367

Data request: // repeat for CC(=O)N1CCN(c2ccc(OCC3COC(Cn4ccnc4)(c4ccc(Cl)cc4Cl)O3)cc2)CC1 (stereo not given) [Ketoconazole] and report
Data returned: 1.81

Data request: // repeat for CN1[C@@H]2CC[C@H]1C[C@@H](OC(c1ccccc1)c1ccccc1)C2 [Benztropine mesylate] and report
Data returned: 2.51
